pKi: −log10 of the molar value.
Before we begin, note that these pKi values for Adenosine receptor A1 (Rattus norvegicus) originate from several publications.
Quick rule: pKi of at least 7 means true, below that means false.

# check: pKi of NC[C@H]1CC[C@H]2CN(c3nc(N)n4nc(-c5ccco5)nc4n3)CCN2C1 (racemic) is greater than or equal to 7
false

# check: pKi of Nc1nc(N2CCN(Cc3cccnc3)CC2)nc2nc(-c3ccco3)nn12 is greater than or equal to 7
false

# check: pKi of CCc1nc2sc(C)c(C)c2c2n[nH]c(=S)n12 is greater than or equal to 7
false

Alright, here's another compound for you.
# check: pKi of COc1ccc(CCCn2ncc3c2nc(N)n2nc(-c4ccco4)nc32)cc1 is greater than or equal to 7
false

---

Before we begin, note that these Ki values for Adenosine receptor A1 (Rattus norvegicus, UniProt P25099) originate from several publications.
# Target system: Adenosine receptor A1 (Rattus norvegicus, UniProt P25099)
# Sequence (P25099 whole entry): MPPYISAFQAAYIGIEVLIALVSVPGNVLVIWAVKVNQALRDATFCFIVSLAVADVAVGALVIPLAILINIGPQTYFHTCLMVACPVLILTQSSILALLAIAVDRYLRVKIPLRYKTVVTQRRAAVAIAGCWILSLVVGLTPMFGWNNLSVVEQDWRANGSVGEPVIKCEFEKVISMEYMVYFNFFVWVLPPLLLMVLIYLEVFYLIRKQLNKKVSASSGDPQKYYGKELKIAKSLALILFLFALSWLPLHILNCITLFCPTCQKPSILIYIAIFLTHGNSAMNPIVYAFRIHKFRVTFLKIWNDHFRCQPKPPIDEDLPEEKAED

// worked examples, Ki included
Identify measured Ki corresponding to Nc1nc(N2CCN3CCC[C@H]3C2)nc2nc(-c3ccco3)nn12
> 0.5 µM

Identify measured Ki corresponding to S=c1[nH]nc2c3c4c(sc3nc(-c3ccccc3)n12)CCCC4
> 10 µM

As a next step, examine the compound that follows.
Identify measured Ki corresponding to CCNC(=O)[C@H]1OC(n2cnc3c(N)nc(C#Cc4ccc(C(C)=O)cc4)nc32)[C@H](O)[C@@H]1O (stereo partly drawn)
> 10 µM

---

Before we begin, note that these Ki values for Adenosine receptor A1 (Rattus norvegicus, UniProt P25099) originate from several publications.
# Target system: Adenosine receptor A1 (Rattus norvegicus, UniProt P25099)
# Sequence (P25099 whole entry): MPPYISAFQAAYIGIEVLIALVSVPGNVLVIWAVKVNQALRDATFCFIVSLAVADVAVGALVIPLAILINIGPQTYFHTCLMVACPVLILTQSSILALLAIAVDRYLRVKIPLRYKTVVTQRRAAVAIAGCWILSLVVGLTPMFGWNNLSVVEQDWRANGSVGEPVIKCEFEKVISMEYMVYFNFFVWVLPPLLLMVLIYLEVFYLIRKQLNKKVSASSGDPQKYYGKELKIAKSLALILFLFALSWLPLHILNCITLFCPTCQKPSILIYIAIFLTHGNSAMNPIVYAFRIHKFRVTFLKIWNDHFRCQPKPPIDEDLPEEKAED
Mark satisfied for Ki under 600 nM, not satisfied if at or over.

Would you please look over these solved cases?
Quick check: Ki of Cn1c(=O)c2c(nc3n2CCCN3CCc2ccc(OCCN3CCOCC3)cc2)n(C)c1=O under 600 nM?
not satisfied

Quick check: Ki of CC(=O)Nc1ccc(OCCN2CCCn3c2nc2c3c(=O)n(C)c(=O)n2C)cc1 under 600 nM?
not satisfied

Quick check: Ki of COC[C@@H]1CCCN1Nc1nc(Cl)nc2c1ncn2[C@@H]1O[C@H](CO)[C@@H](O)[C@H]1O under 600 nM?
satisfied

Others:
Quick check: Ki of OC[C@@H]1OC(n2cnc3c2N=CN2C[C@H](Cc4ccccc4)N=C32)[C@@H](O)[C@H]1O (stereo not given in full) under 600 nM?
not satisfied

Quick check: Ki of CNC(=O)[C@@H]1C[C@H](N)[C@H](n2cnc3c(NCc4cccc(I)c4)nc(Cl)nc32)O1 under 600 nM?
not satisfied

Quick check: Ki of Cc1c(C)n([C@H](C)c2ccccc2)c2nc(-c3ccc(Cl)cc3)nc(N)c12 under 600 nM?
satisfied

Quick check: Ki of CCCn1c(=O)c2c(nc(Cc3cccs3)n2C)n(Cc2ccco2)c1=O under 600 nM?
satisfied

Quick check: Ki of CC[C@@H]1CN2C(=O)N(C)c3nc(-c4ccccc4)n(C)c3C2=N1 under 600 nM?
not satisfied
